Parameter: self-cleavage. Scope: all listed entries.
B1: HDV Ribozyme (parent)
chain: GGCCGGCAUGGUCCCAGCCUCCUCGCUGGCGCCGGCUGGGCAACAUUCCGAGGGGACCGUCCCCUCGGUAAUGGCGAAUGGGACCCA

variants of: B1; test: self-cleavage, relative activity (ratio to wild type); higher = more cleavage; co-transcriptional
Quick one: just the number, no unit, thanks!

mutation_name | self-cleavage
G74A C84U | 0.446
G35C C85U | 0.308
C15A A87C | 0.654
C62U C66G | 0.746
C21U G59C | 0.292

Would you kindly share the measured self-cleavage for C3U U79G ?
0.489

And what about the variant U27A U37G ?
0.119

And what about the variant G40A C41A ?
0.893

And what about the variant G2U A78C ?
0.0198

And what about the variant U12C U69C ?
0.391

And what about the variant G11C U60G ?
0.256

And what about the variant G39A U69G ?
0.305

And what about the variant U12G U27A ?
0.831

And what about the variant U37G A87G ?
0.0455

And what about the variant G17U G73C ?
0.145

And what about the variant C62G C85G ?
0.911

And what about the variant U12G U60G ?
0.831

And what about the variant A8C C19G ?
0.115

And what about the variant G31U G53A ?
0.289

And what about the variant G50U C66U ?
1.09

And what about the variant C75U A78U ?
0.264
